Origin of values: paper PMC12645435

substrate: OC[C@H]1O[C@@H](n2cnc3c(O)ncnc32)[C@H](O)[C@@H]1O; test: HPLC initial rates, Michaelis-Menten; type: biochemical, Chroococcidiopsis thermalis; settings: adenine as nucleobase acceptor
quantityMeasured: Km (µM)
Give a bare numeral; the unit µM is implied.

Respond only with Km recorded for CtNDT (Chroococcidiopsis thermalis PCC 7203; D62N) (protein, homotetramer; residues 111 and 118 of the neighbouring subunit complete the site; expression host and tags only in supplement) MKRKIIYLASPYGFSQQQKTLLLPPIVRALEALGIEVWEPFARNNQIDFSQADWAYRVAQANLQDVKNCDGIFAVVNGTPPDEGVMVELGMAIALNKAIFLFRDDFRRCSDNERYPLNLMLFAGLPEIGWENYYYTSVDEIQSHDKALYKWLTGM 800

Note Km for the protein shown: CtNDT (Chroococcidiopsis thermalis PCC 7203; A9S/Y7F) (protein, homotetramer; residues 111 and 118 of the neighbouring subunit complete the site; expression host and tags only in supplement) MKRKIIFLSSPYGFSQQQKTLLLPPIVRALEALGIEVWEPFARNNQIDFSQADWAYRVAQADLQDVKNCDGIFAVVNGTPPDEGVMVELGMAIALNKAIFLFRDDFRRCSDNERYPLNLMLFAGLPEIGWENYYYTSVDEIQSHDKALYKWLTGM 620

Write down Km measured for item CtNDT (Chroococcidiopsis thermalis PCC 7203; Y7A) (protein, homotetramer; residues 111 and 118 of the neighbouring subunit complete the site; expression host and tags only in supplement) MKRKIIALASPYGFSQQQKTLLLPPIVRALEALGIEVWEPFARNNQIDFSQADWAYRVAQADLQDVKNCDGIFAVVNGTPPDEGVMVELGMAIALNKAIFLFRDDFRRCSDNERYPLNLMLFAGLPEIGWENYYYTSVDEIQSHDKALYKWLTGM 530

Identify the reported Km for the following entry. CtNDT (Chroococcidiopsis thermalis PCC 7203; Y7F) (protein, homotetramer; residues 111 and 118 of the neighbouring subunit complete the site; expression host and tags only in supplement) MKRKIIFLASPYGFSQQQKTLLLPPIVRALEALGIEVWEPFARNNQIDFSQADWAYRVAQADLQDVKNCDGIFAVVNGTPPDEGVMVELGMAIALNKAIFLFRDDFRRCSDNERYPLNLMLFAGLPEIGWENYYYTSVDEIQSHDKALYKWLTGM 710
